tested on: Escherichia coli; test: Minimum inhibitory concentration against Escherichia coli; type: functional
endpoint-name: MIC (µg/mL)

Past entries and their recorded results:
Quick note, MIC for CC[C@H]1OC(=O)[C@H](C)[C@@H](O[C@H]2C[C@@](C)(OC)[C@@](O)(CC)[C@H](C)O2)[C@H](C)[C@@H](O[C@@H]2O[C@H](C)C[C@H](N(C)C)[C@H]2O)[C@](C)(O)C[C@@H](C)CN[C@H](C)[C@@H](O)[C@]1(C)O landed at 1.56

Query CC[C@H]1OC(=O)[C@H](C)[C@@H](O[C@H]2C[C@@](C)(OC)[C@@](O)(CCCOC)[C@H](C)O2)[C@H](C)[C@@H](O[C@@H]2O[C@H](C)C[C@H](N(C)C)[C@H]2O)[C@](C)(O)C[C@@H](C)CN[C@H](C)[C@@H](O)[C@]1(C)O yields MIC of 0.78

(P) CC[C@H]1OC(=O)[C@H](C)[C@@H](O[C@H]2C[C@@](C)(OC)[C@]3(CO3)[C@H](C)O2)[C@H](C)[C@@H](O[C@@H]2O[C@H](C)C[C@H](N(C)C)[C@H]2O)[C@](C)(O)C[C@@H](C)CN[C@H](C)[C@@H](O)[C@]1(C)O
(Q) CC[C@H]1OC(=O)[C@H](C)[C@@H](O[C@H]2C[C@@](C)(OC)[C@](C)(O)[C@H](C)O2)[C@H](C)[C@@H](O[C@@H]2O[C@H](C)C[C@H](N(C)C)[C@H]2O)[C@](C)(O)C[C@@H](C)CN[C@H](C)[C@@H](O)[C@]1(C)O
(R) CC[C@H]1OC(=O)[C@H](C)[C@@H](O[C@H]2C[C@@](C)(OC)[C@@](O)(CCO)[C@H](C)O2)[C@H](C)[C@@H](O[C@@H]2O[C@H](C)C[C@H](N(C)C)[C@H]2O)[C@](C)(O)C[C@@H](C)CN[C@H](C)[C@@H](O)[C@]1(C)O
(S) CCC[C@@]1(O)[C@H](C)O[C@@H](O[C@H]2[C@H](C)[C@@H](O[C@@H]3O[C@H](C)C[C@H](N(C)C)[C@H]3O)[C@](C)(O)C[C@@H](C)CN[C@H](C)[C@@H](O)[C@](C)(O)[C@@H](CC)OC(=O)[C@@H]2C)C[C@@]1(C)OC
Please list the entries, largest MIC first. Arrange the labels as the request states and list them.
R, P, S, Q
(R: 6.25 µg/mL, P: 3.13 µg/mL, S: 1.56 µg/mL, Q: 0.78 µg/mL)
